Sourced from patent US20240109930A1

Molecular target: human Gal-3 (hGal-3) (Homo sapiens (Human), UniProt P17931)
Sequence (P17931 whole entry): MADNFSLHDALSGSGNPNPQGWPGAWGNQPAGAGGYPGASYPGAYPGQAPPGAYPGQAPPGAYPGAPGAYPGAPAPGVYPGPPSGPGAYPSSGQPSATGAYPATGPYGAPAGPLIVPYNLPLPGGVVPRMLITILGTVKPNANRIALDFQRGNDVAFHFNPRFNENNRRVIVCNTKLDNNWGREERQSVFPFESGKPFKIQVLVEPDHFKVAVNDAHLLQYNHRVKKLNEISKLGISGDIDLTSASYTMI
pIC50: −log10 of the molar value.
pIC50 of 7 or higher: T. Under 7: F.

Some solved cases for reference:
• CO[C@@H]1[C@@H](n2cc(-c3ccc(Br)c(F)c3F)nn2)[C@@H](O)[C@@H](CO)O[C@@H]1Cc1cn(C23CCOC(C)(C2)C3)nn1 [Ex 4.1.62.] = T
• CO[C@@H]1[C@@H](n2cc(-c3ccc(Cl)c(F)c3F)nn2)[C@@H](O)[C@@H](CO)O[C@@H]1Cc1cn([C@@H]2CC[C@H]2F)nn1 (single isomer, unassigned) [Example 2.1.88.D] = T
• CO[C@@H]1[C@@H](n2cc(-c3ccc(Cl)c(F)c3F)nn2)[C@@H](O)[C@@H](CO)O[C@@H]1Cc1cn(C2COCC2(F)F)nn1 (mixture of isomers) [Example 2.1.90.B] = T

Please tell me: is the molecule CO[C@@H]1[C@@H](n2cc(-c3ccc(Cl)c(F)c3F)nn2)[C@@H](O)[C@@H](CO)O[C@@H]1Cc1cn(C2(C(F)(F)F)COC2)nn1 [Ex 2.1.58.] at or over 7 in terms of pIC50?
T

Please tell me: is the molecule CO[C@@H]1[C@@H](n2cc(-c3ccc(F)c(F)c3F)nn2)[C@@H](O)[C@@H](CO)O[C@@H]1Cc1cn(C23COC(C)(C2)C3)nn1 [Ex 3.1.59.] at or over 7 in terms of pIC50?
T

Please tell me: is the molecule CO[C@@H]1[C@@H](n2cc(-c3ccc(Cl)c(F)c3F)nn2)[C@@H](O)[C@@H](CO)O[C@@H]1Cc1cn(C2CC(C(F)(F)F)(C(F)(F)F)C2)nn1 [Ex 2.1.57.] at or over 7 in terms of pIC50?
F

###

Biological target: human Gal-1 (hGal-1) (Homo sapiens, UniProt P09382, C131S/C17S/C43S/C61S/C89S)
Test: Competitive binding assay: biotinylated hGal-1 binding to microplate-adsorbed asialofetuin (ASF)
Conditions: IC50 values from several measurements given as geomean
readout type: pIC50
Remember, pIC50 is on a log scale: it is -log10 of the molar concentration.

- CO[C@@H]1[C@@H](n2cc(-c3ccc(Cl)c(F)c3F)nn2)[C@@H](O)[C@@H](CO)O[C@@H]1Cc1cn(C2(CF)CC2)nn1 [Ex 2.1.46.]: 5.97
- CO[C@@H]1[C@@H](n2cc(-c3ccc(Cl)c(F)c3F)nn2)[C@@H](O)[C@@H](CO)O[C@@H]1Cc1cn(C2(C(F)(F)F)CCOCC2)nn1 [Ex 2.1.72.]: 6.32
- CO[C@@H]1[C@@H](n2cc(-c3ccc(C#N)c(F)c3F)nn2)[C@@H](O)[C@@H](CO)O[C@@H]1Cc1cn(C2(C(F)(F)F)COC2)nn1 [Ex 5.1.58.]: 5.72
- CO[C@@H]1[C@@H](n2cc(-c3ccc(Cl)c(F)c3F)nn2)[C@@H](O)[C@@H](CO)O[C@@H]1Cn1cc(C2CC3(C2)CC(F)(F)C3)nn1 [Ex 2.2.84.]: 4.96
- CO[C@@H]1[C@@H](n2cc(-c3ccc(C)c(F)c3F)nn2)[C@@H](O)[C@@H](CO)O[C@@H]1Cc1cn(C(C)(C)CO)nn1 [Ex 1.1.9.]: 4.36

Now examine the next entry.
The compound COCC1(n2cc(C[C@H]3O[C@H](CO)[C@H](O)[C@H](n4cc(-c5ccc(Cl)c(F)c5F)nn4)[C@H]3OC)nn2)COC1 [Ex 2.1.21.] showed pIC50 equal to 6.05
